Would you mind telling me the reported pIC50 of each entry?
Test system: HMEC-1
experiment-summary: Antiproliferative activity against HMEC1 cells incubated for 2 days by MTT assay
Format: cell-based
condition-description: Homo sapiens, HMEC-1, 48 h
Please note pIC50 is a logarithmic value: minus log10 of concentration in mol/L. Answer with that number alone.

Qu. Reported pIC50, compound `COc1ccc(/C=C/c2cccc(NC(=O)Nc3ccc(Cl)cc3)c2)cc1` : ____
Ans. 5.74

Qu. Try this compound too: `COc1ccc(/C=C/c2cccc(NC(=O)Nc3cccc(Cl)c3)c2)cc1`
Ans. 5.70

Qu. Try this compound too: CNC(=O)c1cc(Oc2ccc(NC(=O)Nc3ccc(Cl)c(C(F)(F)F)c3)cc2)ccn1 [SORAFENIB]
Ans. 4.47

Qu. Try this compound too: `COc1ccc(CCc2cccc(NC(=O)Nc3ccccc3Cl)c2)cc1`
Ans. 4.32

Qu. Try this compound too: `COc1ccc(/C=C\c2cccc(NC(=O)Nc3ccccc3Cl)c2)cc1`
Ans. 4.48

Qu. Try this compound too: `COc1ccc(/C=C\c2cccc(NC(=O)Nc3ccc(Cl)cc3)c2)cc1`
Ans. 4.48
